Attribution: the RNAGym collection of RNA variant scans (doi:10.1126/science.aae0568)

B1: tRNA (parent)
chain: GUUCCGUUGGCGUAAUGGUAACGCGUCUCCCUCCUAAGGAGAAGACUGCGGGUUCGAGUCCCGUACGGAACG

Variants of: B1
Experiment: yeast fitness relative to wild type (ratio to wild type); higher = fitter; tRNA-Arg(CCU), competitive growth, 37 C, YPD
This sample holds only a part of the variants without activity.
Entries annotated with measured yeast fitness
Answer with a bare number; do not write a unit.

Known results for variants:
MUTANT_DESIGNATION: G17A A20G G25C C34U C46G G63A A65C
yeast fitness: 0.561
--
MUTANT_DESIGNATION: A15G U64C A69C
yeast fitness: 0.775
--
MUTANT_DESIGNATION: G50A C55U
yeast fitness: 0.893
--
MUTANT_DESIGNATION: U3A U16C C46U
yeast fitness: 0.631
--
MUTANT_DESIGNATION: G51C U53A
yeast fitness: 0.544

[ask] // Input: G6C U8G G10C A37G C62U U64A . Output its yeast fitness only.
[reply] 0.504

[ask] // Input: A15U A20C C27U . Output its yeast fitness only.
[reply] 0.748

[ask] // Input: C5U C34G U35C . Output its yeast fitness only.
[reply] 0.533

[ask] // Input: G41A U47A C49U U59C G67C A70U . Output its yeast fitness only.
[reply] 0.532
